# Test system: MCF7
# Test description: NCI tumour cell line growth inhibition, 48 h
The source made the active and inactive calls. Rule as the data show it: active = GI50 up to about 1.1 µM and inactive = higher.
Recorded metric: GI50

See these solved cases before continuing.
In [3]: df
Out[3]:
                                   compound  experimental_target      endpoint_result
0  Cc1ccc(C(=O)C2CC3(CCC2(O)c2ccc(C)cc2)CC(=O)Nc2ccccc2C3=O)cc1 (stereo not given)                 MCF7    7.6 µM (inactive)
1  COC(=O)[C@@H]1[C@H](O)CC[C@H]2[C@@]1(C)CC[C@@H](C)[C@]2(COC(C)=O)CC(=O)c1ccoc1                 MCF7   > 50 µM (inactive)
2                 Cc1nc2sc(CCl)nn2c(=O)c1Cl                 MCF7   4.58 µM (inactive)
3  C1=C2C3=[N+](CCCC3)CC2Cc2sccc21 (stereo not given)                 MCF7  > 100 µM (inactive)

Continue with the compound presented below.
Noted for O=S(=O)(c1ccccc1)c1ccc(-c2nc(-c3ccc4c(c3)Sc3ccccc3S4)cs2)cc1 : its GI50 reads 61 µM (inactive)
